Ref: PubChem BioAssay AID2314

- Assay notes: Cycloheximide Counterscreen for Small Molecule Inhibitors of Shiga Toxin
- Stated conditions: cell reporter, cycloheximide protein synthesis inhibition counterscreen; active compounds read high
Hit rate of the full screen: of about 300,000 compounds, about 37,000 (12%) were called active. This excerpt belongs to a sample that is enriched for actives.
Property label: max response (%)
Answers are plain numbers, in %.

Molecule: O=c1c2cc(-c3ccccc3)sc2nc2n1N=C(c1cccs1)CS2
Uom: %
max response: 57

Value sought for every listed molecule: max response.
1. COc1ccc(S(=O)(=O)N2CCOCC2)cc1C(=O)Nc1nc2ccccc2s1
2. COc1ccc(OC)c(S(=O)(=O)N2CCCC(C(=O)NCCc3ccccc3)C2)c1 (configuration not stated)
3. CN(C)S(=O)(=O)c1cccc(NC(=O)Cc2ccsc2)c1
4. COc1ccc(-c2[nH]ncc2CN(Cc2nccn2C)C(C)C)cc1F
5. CC[n+]1c(C)n(-c2ccccc2)c2ccc(NC(C)=O)cc21

1: 8.09; 2: 8.7; 3: -3.01; 4: 0.417; 5: 8.88

###

- Assay notes: Cycloheximide Counterscreen for Small Molecule Inhibitors of Shiga Toxin
- Stated conditions: cell reporter, cycloheximide protein synthesis inhibition counterscreen
In all, about 300,000 compounds went through this assay and about 37,000 (12%) were called active. Rule as the data show it: active = max response mostly above about 13% (no sharp cut-off); inactive = mostly below about 14%. For the sample, actives were picked, then their nearest neighbours and some compounds at random.
Hi there, use one of these labels in your reply, thanks! active, inactive

Reference set, count: 5
Compound: COc1ccc(C2/C=C\CN(C(=O)c3ccc(C)cc3)C(Cc3ccccc3)C(=O)N2Cc2ccc(F)cc2)cc1 (stereo not drawn)
Label: inactive
--
Compound: O=C(Nc1cccc(CCc2ccccn2)c1)c1ccc(Cl)cc1
Label: inactive
--
Compound: Cc1cccc(C)c1NC(=O)c1ccc(CN2CCc3ccccc3C2)cc1
Label: inactive
--
Compound: COc1ccc(CNC(=O)CN(c2ccc(OC)c(Cl)c2)S(=O)(=O)c2ccc(C)cc2)cc1
Label: inactive
--
Compound: Cc1ccc(NC(=O)CN2CCc3ccccc3C2)cc1C
Label: inactive

Answer briefly: the call reported for `COc1ccc(N(C(=O)c2ccc(C)cc2)S(=O)(=O)c2cccs2)cc1` in this assay. inactive

Answer briefly: the call reported for CCCC(C(=O)NC1CCCC1)N(C(=O)Cn1nnc(-c2ccc(C)o2)n1)c1cccc(O)c1 (stereo not drawn) in this assay. inactive

Answer briefly: the call reported for `C#CCNC(=O)C1=C[C@@H](c2ccccc2)[C@H](CCCO)[C@@H](OCC)O1` in this assay. inactive

Answer briefly: the call reported for `CC1=NN(c2ccc(Cl)c(C(=O)O)c2)C(=O)/C1=C/c1ccc(-c2ccccc2[N+](=O)[O-])o1` in this assay. inactive

Answer briefly: the call reported for CCC(=O)c1ccc(OCC(O)Cn2nc(C)c(C(C)=O)c2C)cc1 (stereo not drawn) in this assay. inactive

###

- Assay notes: Cycloheximide Counterscreen for Small Molecule Inhibitors of Shiga Toxin; also: read at 38.3 µM for the half of the compounds with a filed dose; 0% is about no effect
- Stated conditions: cell reporter, cycloheximide protein synthesis inhibition counterscreen; active compounds read high
Among all 300,000 compounds or so, about 37,000 (12%) were called active. Many of the other results were omitted from the sample, so actives are more common in it than they were.
Property label: max response (%)
One number for each entry, in %.

Answered cases to consult:
Compound: O=[N+]([O-])c1ccccc1/C=C/CN1CCCC(CO)C1 (stereo unspecified)
max response / %: -1.17
--
Compound: O=S(O)S(=O)(=O)O
max response / %: -2.81
--
Compound: O=C(CCCOc1ccccc1)NCc1ccco1
max response / %: 8.48
--
Compound: CCCCOc1ccc(C(=O)NCc2ccco2)cc1
max response / %: 27.4
--
Compound: COc1ccc(NS(=O)(=O)c2ccc(O)c(C(=O)OCC(=O)NC3CCCCC3)c2)cc1
max response / %: 0.885

Continue with the compound presented below.
Consider the compound `COc1ccc(CCNC(=O)c2ccccc2OCc2ccccc2)cc1` and give its recorded max response. -1.84

###

Please respond with reported max response for every item in the list.
- Assay notes: Cycloheximide Counterscreen for Small Molecule Inhibitors of Shiga Toxin; also: read at 38.3 µM for the half of the compounds with a filed dose; 0% is about no effect
- Stated conditions: cell reporter, cycloheximide protein synthesis inhibition counterscreen; active compounds read high
About 37,000 (12%) of roughly 300,000 compounds were called active. The list comes from a sample in which actives are over-represented; it also holds close analogues and randomly drawn compounds.
Give bare numbers, in %.

Compound: CCOc1ccc(NC(=O)CCCCCN2C(=O)[C@@H]3Cc4ccccc4CN3C2=O)cc1
Property label: max response
Uom: %
Meas value: 6.74
--
Compound: Cc1cc(-c2ccc(S(=O)(=O)N3CCN(c4cccc(C(F)(F)F)c4)CC3)s2)on1
Property label: max response
Uom: %
Meas value: 1.18
--
Compound: COc1ccccc1CN1CCCC(N2CCN(c3ccc(F)cc3)CC2)C1 (stereo not given)
Property label: max response
Uom: %
Meas value: 0.35
--
Compound: COc1ccc(-c2c(C)cc3oc(=O)cc(-c4ccccc4)c3c2C)cc1C=O
Property label: max response
Uom: %
Meas value: 19.9

Continue with the compound presented below.
Consider the compound `Cc1ccc(N/C=C/C(=O)c2ccccc2)cc1C` and give its recorded max response. 45.6

###

- Assay notes: Cycloheximide Counterscreen for Small Molecule Inhibitors of Shiga Toxin; also: read at 38.3 µM for the half of the compounds with a filed dose; 0% is about no effect
- Stated conditions: cell reporter, cycloheximide protein synthesis inhibition counterscreen
The whole screen tested about 300,000 compounds, of which about 37,000 (12%) were called active. Rule as the data show it: active = max response mostly above about 13% (no sharp cut-off); inactive = mostly below about 14%. This is one part of a sample in which actives are shown more often than they occur.
Hi there, use one of these labels in your reply, thanks! active, inactive

Reference set, count: 3
Compound: COc1ccc(NC(=S)NCCNC(C)=O)cc1
Label: inactive
--
Compound: Cc1cccc(NC(=O)c2ccc3c(=O)n(CC4CCCO4)c(=S)[nH]c3c2)c1 (stereo not drawn)
Label: inactive
--
Compound: Cc1cc(-c2n[nH]c(=S)n2/N=C/c2ccco2)n[nH]1
Label: inactive

Answer briefly: the call reported for CC(=O)OC(C(=O)NC1CCCCC1)c1ccccc1 (stereo not drawn) in this assay. inactive

Answer briefly: the call reported for O=C(C(NS(=O)(=O)c1cccc2nsnc12)c1ccccc1)N1CCN(c2ccccc2)CC1 (stereo not drawn) in this assay. inactive

###

- Assay notes: Cycloheximide Counterscreen for Small Molecule Inhibitors of Shiga Toxin; also: read at 38.3 µM for the half of the compounds with a filed dose; 0% is about no effect
- Stated conditions: cell reporter, cycloheximide protein synthesis inhibition counterscreen; active compounds read high
Screen size: about 300,000 compounds; about 37,000 (12%) were called active. This is one part of a sample in which actives are shown more often than they occur.
Please respond with reported max response for every item in the list.
Numbers only, in %.

Compound: CS(=O)(=O)N1CCc2cc(C(=O)Nc3ccccc3Br)ccc21
Property label: max response
Meas value: 30.9
//
Compound: COc1ccc(CNC(=O)C(=O)NCC2OCCN2C(=O)c2ccc(OC)cc2)cc1 (stereo not drawn)
Property label: max response
Meas value: -1.12
//
Compound: CCN1CCN(CCNC(=O)c2ccc3c(c2)NC(=O)/C(=C\c2ccc(OC)c(OC)c2)S3)CC1
Property label: max response
Meas value: 1.31
//
Compound: CN(C)c1nc(N)nc(CSc2nnnn2-c2cccc3ccccc23)n1
Property label: max response
Meas value: -1

Value sought for every listed compound: max response.
1. CS(=O)(=O)N1CCc2cc(C(=O)Nc3ccccc3)ccc21
2. CC(C)(C)C(=O)c1cnc(Nc2ccccc2)s1
3. CC1=C(C(=O)OC2CCCCC2)C(c2ccccc2F)NC(=O)N1 (stereo not drawn)
4. CSc1ccccc1NC(=O)c1ccc2c(c1)CCN2S(C)(=O)=O
5. Cc1ccc(CN(C)Cc2cc(=O)oc3cc(C)c(Cl)cc23)cc1

[-1.85, 44.2, 13.8, 43.6, 8.9]

Value sought for every listed compound: max response.
1. S=c1[nH]nc(Nc2ccccc2)s1
2. Cc1nc([N+](=O)[O-])cn1CC(=O)Nc1ccc(Cl)cc1
3. Cc1cc(C)n(-c2cc(Oc3ccccc3)ncn2)n1
4. CC(C)(C)c1nnc(NC(=O)C2c3ccccc3Oc3ccccc32)s1
5. CC(=O)C(C)n1cnc2scc(-c3ccc(C)cc3)c2c1=O (stereo not drawn)
6. CC1CC(C)CN(C(=O)CSc2ccsc2[N+](=O)[O-])C1 (stereo not drawn)
7. CCc1cccc(NC(=O)C2CCCN(S(=O)(=O)c3ccc4[nH]c(=O)ccc4c3)C2)c1 (stereo not drawn)

[1.07, -1.69, 21.7, -2.51, 1.16, 25.5, 14.1]

Value sought for every listed compound: max response.
1. CCC(NC(=O)C1CCCC1)c1ccc(C)cc1 (stereo not drawn)
2. Cc1cccc(-c2nc3c(c(SCC(=O)N4CCOCC4)n2)CCCC3)c1
3. Cc1ccc(-c2nnc(-n3nnc4ccccc43)c3ccccc23)cc1
4. CCOC(=O)CSc1ccccn1
5. COc1ccc(OC)c(NC(=O)c2ccc3c(c2)CCN3S(C)(=O)=O)c1

-1.61
-3.15
9.11
-1.11
-0.802

Value sought for every listed compound: max response.
1. CCc1ccccc1NC(=O)c1ccc2c(c1)CCN2S(C)(=O)=O
2. O=C(COc1ccc2ccc(=O)oc2c1)NCC(O)c1ccccc1 (stereo not drawn)

1: -1.1; 2: -10.7
